# SYSTEM NAME: GlmR (Bacillus subtilis)
# Construct: purified recombinant B. subtilis GlmR, FITC-labeled (pET28a, from E. coli)
# Sequence (O06974 whole entry): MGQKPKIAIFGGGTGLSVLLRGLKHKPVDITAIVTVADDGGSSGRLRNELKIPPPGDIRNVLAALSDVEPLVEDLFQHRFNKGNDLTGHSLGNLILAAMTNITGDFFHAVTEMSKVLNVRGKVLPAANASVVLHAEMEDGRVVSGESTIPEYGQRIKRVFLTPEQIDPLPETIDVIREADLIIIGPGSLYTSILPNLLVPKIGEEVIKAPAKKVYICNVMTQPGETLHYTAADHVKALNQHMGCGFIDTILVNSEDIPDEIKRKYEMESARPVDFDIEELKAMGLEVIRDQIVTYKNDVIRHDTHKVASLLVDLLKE
# TEST NAME: fluorescence titration of FITC-labeled GlmR, single-site fit

- COMPOUND: "CC(=O)N[C@H]1[C@@H](OP(=O)(O)OP(=O)(O)OC[C@H]2O[C@@H](n3ccc(=O)[nH]c3=O)[C@H](O)[C@@H]2O)O[C@H](CO)[C@@H](O)[C@@H]1O [UDP-GlcNAc]"
  SYSTEM NAME: "GlmR (Bacillus subtilis)"
  Kd [µM]: 280
